Measured cytotoxicity at 70.5 h accompanies every entry in the list below.
# assayProtocol: Human HepG2 cell viability assay in 384 well format
# Type: toxicity, cell-based
# Parameters: dose 125 nL, time 70.5 hour; concentration not given beside the values
# conditionLabel: HepG2 cells, read-out: Inhibition
Express your answer in %, writing the number without its unit.

CNC(=O)c1cc(NC(=O)NCC2CCS(=O)(=O)C2)ccc1OC (centres undefined) | 19.9

IN: What value of cytotoxicity at 70.5 h has been recorded for this entry: CN(C)[C@@H]1CCN(C(=O)c2ccsc2)[C@H]1Cc1cccnc1
OUT: 2.91

IN: Subsequent entry: Cc1csc(CCNC(=O)N2CCC(C(N)=O)CC2)n1
OUT: -16.7
